test: soluble fraction after stress (log2 fold change); higher = more stays soluble; pooled small domains, quantitative proteomics; conditions: stress: 75 degC;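 also: 20 min heating vs room temperature control held 20 min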

entry sequence	soluble fraction (log2)
HMPSNVKIPDVTGKTVAQARSAIEAAGLKVGKEKDEYSDSAKKDSVIRTNPQAGTQRREGSTVDLIVS	0.175
HMNLIFFSENLSTFRKEKGWTQSELAEKLGVKANTISNYEKGISTPDYKIIAKLRELFEMPTDVLLYSNLS	-1.86
HMQQSVSSLVRRYMLQTIPGINFSLKSTALALNMSDRTLQRKLLSENTSYQIILDDVRKELAIKYLKE	-3.23
HMGVTDSSYNVLRRQILEMLSVQQRTPADLARLIEADKEEIAAVIRFLLDKGEIQMEDGMLQTK	-0.821
HMAFAQMAQEAAKGKDDFNDLRQEMEAVIKEQPHILLMAQFGQNPYEIAYQEAKRRKAQDQQQQQ	0.877
HMVAEKSKIEMAIDSINKLAKELADSGVAKKTISDIIKSVSGSANYNKITDFEVATDVYKELVALKNKEDT	0.223
HMHGESISVPDLRGQKMERMPAFLADKHLQFKVIDSLFDLEKNPGTVLEQDPAPNSKVKEGRTIYLTVNAQ	-0.00257
HMSQEHTVPDYKDMEATVVYADLTQKGLNYEIAQETSPTIKEGNVTQTIPGMNEKVVSGDTITVFVSTGTG	0.431
HMYMKMNDRIRSRRKELKMTQSVLAKLVGVNRVTITGWESGDYKPGGENLQALAAALEKTPQWLLDGKD	-2.82
HMELLTYREMDVLNLLDQRLTNKEIAHALGISTETVRQHTVNLFRKLNVDNRRQAIVVARSLGYIGTPT	-2.97
HMGENTIFSGVLGEGRLDSALAHALPQFSRARIQGLIAEDAVLIAGKATNDAASKKFAGQSFELSVPAPRP	0.119
HMEISTEVPLRGGTISEEALEALNRLPGVTASNIDGKSISVDVADNAELRVSDINQVLAVHSPDTRV	-0.0403
HMSRYQDIANDIEKDIIEKKYTRKLPEQFELAQKYQTSRVTIVHALKILQNKKLIRTVKGHGTFITS	-1.84
HMIAGHLQEKKGFFYIVLSYPDAAGKRKTKWFPTKLSVKGNKKKAEVMLMDARKTFVPPETPL	-0.497
HMLNDTGAIRAAVEEVLAANEKSVNEYKGGKTQAFQYLIGQSMRALRGKAPAQEVTKLLKELLG	-0.564
HMNTRWDDAAQTWLRKVIEQQPVLVQISAAKRLRDQAEQRAREAGEEVVTEQHVKRAGLELGFGEP	0.0588
HMEAISSESIKKMIKSYVSGEDASKPLSDQQIADLLVKEGYMISRRTVAKYRDELGILSSSKRKR	-0.152

----------
experiment: soluble fraction after stress (log2 fold change); higher = more stays soluble; pooled small domains, quantitative proteomics; settings: stress: 75 degC
Quick rule: soluble fraction (log2) of at least 0.06 means yes, below that means no.

entry sequence	label value
HMSYTYPVARLNHIKGKWYVLVSVPAHLRHLFPNQRDLRRSTGTDDESLAKRKQHALAQEIYDLFD	no
HMENMETSDIVARYSNMPGGIIEAFHEIVDRHGFLSQEAIIEAARGFGISVAEAYGVATFYSMFS	no
HMQSTVSTHQKTLALDTAQSGIPVFPVSSTHKRPLTDHGYKDATADADAVRKIWQQFPSAFV	yes
HMPSPFYIMDEVEAALDDTNLGRLITLFEELRDSSQLIVITHQKKTMEIADALYGVTMRGDGITTVVSQRL	yes
HMQLDLTSTLDHMYKQMRNDHPRALLMAVEKEMVLRALKETDGNQLRASDILGISRSTLRKRIEEFDINS	no
HMNFDLDSFKQRMTLDGLYFGNEKQDVIALNNLSERYQLTWFDVYQLAKETSSNHKILPKRILVKLQQ	no
HMDINLSENLVRLRHAKKLTQEQLADFLGVTKASVSKWETRQSLPDILLLPRLAAFYGVTVDELIGYEP	no
HMDYEVPEELQQKFEEFPRLKEAFYQLTPGRQHQYLYYFSQAKRSQTRYNRIDKYMNAILQGKGMK	no
HMPGLQSVTPAELKIGMYVILPLAWDEHPFLKNHFLIQSEAQINKIRELGTKGIQIDLSKSHP	no
HMKLTNNDFIRLKTFMYNNYGINLENKKTLIETRLAIVVKRLGFNDFKSYIDNLMRDKTGEQASIIVGKLT	no
HMSDESALIAAIEKAIAAQPETAEKVRNGHLPAAGALIGSVMKETKGQADAARVRELLLGLLGQ	yes
HMELRSPMPGLIIEIPVSKGDIIKKDQSLIILEAMKMENVLTSPINGKIADIKVNVQDTVEKNNLLITFEN	no
HMGRDWKTDLLNLATARGWGDVSYEVTGEGPDHARVYTAVAIVANQKTGTGVGPSKKEAERLAAEQAYRML	no
HMTDSISLTLNGDPRPFRAGATVADLVRDIGLDPAKVAVERNLEIVPRSTLENVHLADGDVLEIVHFV	yes
HMEPVIELGDRTLPIEITRHRRARRLTLRLAADGSAVRITLPHWARSAEATAFAHARRDWLAAQLAK	yes
HMSPLQLGNYNTLRITRFTDHGAYLDGGDVGEILMPKTYVLPEMKPGDEVRVFVYLDQEERLVGTTET	no
